- Test system: SN12C
- testMethodNotes: minimum viability across doses, drug alone, relative to DMSO (fraction); higher = less growth inhibition
- assayConditions: treatment: drug alone; 5 days
Rule for this label: YES means minimum viability across doses is less than 0.8; NO means minimum viability across doses is at least 0.8.

Before answering, review these 5 worked examples.
[
  {
    "compound": "CN(C[C@@H]1COCCO1)S(=O)(=O)Nc1ccc2ccc3ncc(-c4cnn(C)c4)cc3c(=O)c2c1 [MK-2461]",
    "labelValue": "YES"
  },
  {
    "compound": "CO[C@H]1C[C@@H]2CC[C@@H](C)[C@@](O)(O2)C(=O)C(=O)N2CCCC[C@H]2C(=O)O[C@H]([C@H](C)C[C@@H]2CC[C@@H](O)[C@H](OC)C2)CC(=O)[C@H](C)/C=C(\\C)[C@@H](O)[C@@H](OC)C(=O)[C@H](C)C[C@H](C)/C=C/C=C/C=C/1C [Rapamycin (Sirolimus)]",
    "labelValue": "YES"
  },
  {
    "compound": "C[C@@H](N)[C@H]1CC[C@H](C(=O)Nc2ccncc2)CC1.Cl.Cl",
    "labelValue": "NO"
  },
  {
    "compound": "COc1cc2nccc(Oc3ccc(NC(=O)NC4CC4)c(Cl)c3)c2cc1C(N)=O [E7080 (Lenvatinib)]",
    "labelValue": "YES"
  },
  {
    "compound": "CN1C(=O)C(Cc2c[nH]c3ccccc23)NC1=S (stereo not drawn) [Necrostatin-1]",
    "labelValue": "NO"
  }
]

Prompt: Hi there! Is minimum viability across doses for Nc1ncnc2c1c(-c1cccc(OCc3ccccc3)c1)cn2[C@H]1C[C@H](CN2CCCC2)C1 [NVP-ADW742] below 0.8, do you know?
Response: YES

Prompt: Does CO[C@H]1CC2CC[C@@H](C)[C@@](O)(O2)C(=O)C(=O)N2CCCC[C@H]2C(=O)O[C@H]([C@H](C)C[C@@H]2CCC(OC(=O)C(C)(CO)CO)[C@H](OC)C2)CC(=O)[C@H](C)/C=C(\C)[C@@H](O)[C@@H](OC)C(=O)[C@H](C)C[C@H](C)/C=C/C=C/C=C/1C (stereo in doubt) [Temsirolimus (Torisel)] have minimum viability across doses strictly under 0.8?
Response: YES

Prompt: Please indicate whether the reported minimum viability across doses of O=C1Nc2ccccc2/C1=C1/Nc2ccccc2C1=O [Indirubin] is strictly below 0.8.
Response: YES

Prompt: Is the reported minimum viability across doses for Nc1cccc2c1CN(C1CCC(=O)NC1=O)C2=O (stereo not drawn) [Lenalidomide (Revlimid)] strictly below 0.8?
Response: NO

Prompt: Field: below-cutoff. Rule: recorded minimum viability across doses strictly less than 0.8. Subject: O=C(NC1CCNCC1)c1n[nH]cc1NC(=O)c1c(Cl)cccc1Cl [AT7519]
Response: YES

Prompt: Consider the compound CCC[C@H](NC(=O)/C(C#N)=C/c1cccc(Br)n1)c1ccccc1 [WP1130] . Is its minimum viability across doses strictly less than 0.8?
Response: YES
